System: HACAT
Experiment: qHTS assay to identify novel small-molecules to repurpose for Merkel cell carcinoma treatment (AID 1296009); further: nearly all actives have a fitted effect of over 60% in size
Conditions: MCC and control cell lines, CellTiter-Glo viability, 72 h; at 44.8 µM (top of the series) unless noted
Inconclusive results are not listed. Calls of active or inactive are those of the source. The call rests on the fitted dose curve; in most records, active means well fitted inhibition curve with a large enough effect; inconclusive means small, poorly fitted or top-dose-only effect; inactive means flat fitted curve, though single readings scatter.
quantity kind: outcome

{"molecule": "CC(=O)O[C@@H]1CC[C@@]2(C)C(CC[C@]3(C)C2[C@H](O)C=C2[C@H]4[C@@H](C)[C@H](C)CC[C@]4(C)CC[C@]23C)[C@@]1(C)C(=O)O (stereo partly specified)", "measured result": "inactive [at 17.4 µM]"}
{"molecule": "O=C(NCCCCN1CCN(c2cccc(Cl)c2Cl)CC1)c1cc2ccccc2s1", "measured result": "inactive"}
{"molecule": "CCCC(=O)C1(c2ccccc2)CCN(C(=O)[C@@H](Cc2ccc(OC)cc2)NC(=O)[C@@H](N)Cc2cncn2C)CC1", "measured result": "inactive"}
{"molecule": "Cc1cccc(-c2[nH]ncc2-c2ccnc3ccccc23)n1", "measured result": "inactive"}
{"molecule": "C[C@@H]1O[C@@H](O[C@H]2[C@@H]3C=CO[C@@H](O[C@@H]4O[C@H](CO)[C@@H](O)[C@H](O)[C@H]4O)[C@@H]3[C@@]3(CO)O[C@@H]23)[C@H](O)[C@H](OC(=O)/C=C/c2ccccc2)[C@H]1O", "measured result": "inactive [at 17.4 µM]"}
{"molecule": "COC(=O)c1ccc2c(c1)nc(NC(=O)c1ccccc1)n2CCCc1ccccc1", "measured result": "inactive"}
{"molecule": "COC(=O)C(Cc1ccc(OCCn2c(=O)sc3cc(C(=O)c4ccccc4)ccc32)cc1)C(=O)OC", "measured result": "inactive"}
{"molecule": "O=[N+]([O-])c1ccc(Oc2ccc3c(c2)CCC(c2ccccc2)O3)nc1 (stereo unspecified)", "measured result": "inactive"}
{"molecule": "CC(=O)OC(C)(C)/C=C/C(=O)[C@](C)(O)[C@H]1C(O)C[C@@]2(C)[C@@H]3CC=C4[C@@H](C=C(O[C@@H]5O[C@H](CO)[C@@H](O)[C@H](O)[C@H]5O)C(=O)C4(C)C)[C@]3(C)C(=O)C[C@]12C (stereo partly specified)", "measured result": "inactive [at 17.4 µM]"}
{"molecule": "CCCCCCCOc1cc2c(cc1/C(C)=C/c1ccc(C(=O)O)cc1)C(C)(C)CCS2(=O)=O", "measured result": "inactive"}
{"molecule": "COc1cc(C(=O)O)ccc1NC(=O)C1NC(CC(C)(C)C)C(C#N)(c2ccc(Cl)cc2F)C1c1cccc(Cl)c1F (stereo unspecified)", "measured result": "inactive"}
{"molecule": "CC(C)(O)c1ccc2c(c1)ncn2-c1cccc(-c2ccccc2C#N)c1", "measured result": "inactive"}
{"molecule": "Fc1ccc2c(CCNCc3cccc(OCC(F)(F)C(F)F)c3)c[nH]c2c1", "measured result": "inactive"}
{"molecule": "Cc1ccnc(NC(=O)C(C)c2cccc(C(=O)c3ccccc3)c2)c1 (stereo unspecified)", "measured result": "inactive"}
{"molecule": "Cc1ccc(NC(=O)c2ccc(CN3CCNCC3)cc2)cc1Nc1nccc(-c2cccnc2)n1", "measured result": "inactive"}
{"molecule": "O=C(NCCCN1CCC2(CC1)OCc1ccccc12)[C@H]1CCCN1Cc1ccccc1", "measured result": "inactive"}
{"molecule": "C[C@@H](NC(=O)C(=O)c1c[nH]c2ccc([N+](=O)[O-])cc12)c1ccccc1", "measured result": "inactive"}
{"molecule": "Cc1cc2c(F)c(Oc3ncnn4cc(OCC(C)OC(=O)C(C)N)c(C)c34)ccc2[nH]1 (stereo unspecified)", "measured result": "inactive"}
{"molecule": "Cc1cc2c(c(=O)o1)C=C1CC[C@H]([C@H](C)Cn3cnc(=N)c4[nH]cnc43)C[C@@H]1O2", "measured result": "inactive"}
{"molecule": "COc1ccncc1C(=O)NC(=O)Nc1ccc(-c2ccccc2)c(C(F)(F)F)c1", "measured result": "inactive"}
{"molecule": "COc1ccc2c(NC(=O)Nc3cccc(C(F)(F)F)n3)ccnc2c1", "measured result": "inactive"}
{"molecule": "Cc1[nH]c2ccccc2c1CCNC(=O)c1cccs1", "measured result": "inactive"}
{"molecule": "CC(=O)O[C@H]1[C@@]2(O)C[C@H](C)[C@H](OC(=O)c3ccccc3)[C@@H]2[C@@H](OC(=O)CO)[C@]2(OC(C)=O)C[C@H]3C(=O)C(C)(C)C[C@@H]3[C@@]1(C)[C@H]2OC(C)=O", "measured result": "inactive [at 17.4 µM]"}
{"molecule": "CC(C)S(=O)(=O)c1ccc2nccc(Nc3ccc4scnc4c3)c2c1", "measured result": "inactive"}
{"molecule": "C/C=C(/C)C(=O)OC1C=C2C3C(C)C(C)C(OC(=O)C(C)C(C)O)CC3(C)CCC2(C)C2(C)CC(OC(C)=O)C3C(C)(C)C(O)C(=O)CC3(C)C12 (stereo unspecified)", "measured result": "inactive [at 17.4 µM]"}
{"molecule": "CC(NCCCc1cccc(C(F)(F)F)c1)c1cccc2ccccc12 (stereo unspecified)", "measured result": "inactive [at 17.4 µM]"}

###

Test system: Hek293T
Test: Primary qHTS to identify gynecologic anti-cancer compounds using libraries of approved drugs and bioactive compounds (AID 1345084); further: nearly all actives have a fitted effect of over 55% in size
Conditions: Gynecologic cancer cell panel viability, ATPlite luminescence, 48 h, control line for the selectivity index; series mostly up to 57.5 µM
Inconclusive results are not listed. The source made the active and inactive calls. Calls come from the whole dose curve; as a rule, active = well fitted cell-killing curve with a large enough effect; inconclusive = small, poorly fitted or top-dose-only effect, or effect the other way; inactive = flat fitted curve, though single readings scatter.
Classes used: YES = active, NO = inactive

{"compound": "CC(=O)OC1CCC2(C)C(CCC3(C)C2CC=C2C4C(C)C(C)CCC4(C)CCC23C)C1(C)C(=O)O (centres undefined)", "group label": "NO"}
{"compound": "CCNC(=O)C#Cc1ccc2c(C(=Nc3ccc(CN(C)C)cc3)c3ccccc3)c(O)[nH]c2c1", "group label": "NO"}
{"compound": "CCC(CC)(NC(=O)C(C)C)C(=O)N[C@@H](CCCN=C(N)N)C(=O)NC1(C(=O)NC(c2ccc(F)cc2)c2ccc(F)cc2)CCCC1", "group label": "NO"}
{"compound": "O=C(O)c1ccc(N2C(=O)/C(=C/c3ccc(-c4ccc([N+](=O)[O-])cc4)o3)C=C2c2ccccc2)cc1", "group label": "NO"}
{"compound": "CC(=O)OC1CC(O)(C(C)C)C2C(OC(=O)c3ccc(O)cc3)C=C(C)C(=O)CC12C (centres undefined)", "group label": "NO"}
{"compound": "N#Cc1cc(C2=Nc3ccc(Br)cc3NC(=O)C2)ccn1", "group label": "NO"}
{"compound": "N[C@@H]1c2cccnc2[C@H](OC(=O)N2CCC(n3c(=O)[nH]c4ncccc43)CC2)CC[C@H]1c1cccc(F)c1F", "group label": "NO"}
{"compound": "O=C(/C=C/c1ccccc1O)O[C@@H]1O[C@H](CO)[C@@H](O)[C@H](O)[C@H]1O", "group label": "NO"}
{"compound": "O=S(=O)(NCc1ccccn1)c1ccc(Br)c2ccccc12", "group label": "NO"}
{"compound": "O=C(O)c1cc(N(Cc2ccc(C3CCCCC3)cc2)C(=O)c2ccc(Oc3ccccc3)cc2)ccc1O", "group label": "NO"}
{"compound": "COC(=O)c1ccnc(-c2cc(C(=O)Nc3ccc(C4(N)CC4)cc3)ccn2)c1", "group label": "NO"}
{"compound": "CC1=C(C(=O)OC2CCCCC2)C(c2ccc([N+](=O)[O-])cc2)C2=C(CC(C)(C)CC2=O)N1 (centres undefined)", "group label": "NO"}
{"compound": "COc1cc2c(cc1-c1c(C)noc1C)ncc1[nH]c(=O)n(C(C)c3ccccn3)c12 (centres undefined)", "group label": "NO"}
{"compound": "CN1CCC(NC(=O)c2cc(-c3c(O)cc(O)cc3Oc3ccc([N+](=O)[O-])cc3)on2)CC1", "group label": "YES"}
{"compound": "COC(=O)c1sccc1S(=O)(=O)Nc1ccc(Nc2ccccc2)cc1OC", "group label": "NO"}
{"compound": "CC#C[C@@H](CC(=O)O)c1ccc(OCc2ccc(CN3CCC4(C=Cc5ccccc54)CC3)s2)cc1", "group label": "NO"}
{"compound": "C#CCOc1ccc2c(c1)c(-c1ccc(C(C)C)cc1)nc(=O)n2C(C)C", "group label": "NO"}
{"compound": "C=C1C(=O)OC2/C=C(\\CO)CC/C=C(\\C=O)C(O)C(OC(=O)C(C)CC)C12 (centres undefined)", "group label": "NO"}
{"compound": "COC(=O)CC(O)CC(O)/C=C/c1c(C)ccc2c1C(OC(C)=O)CC(C)C2 (centres undefined)", "group label": "NO"}
{"compound": "C=CC(C)(O)CC/C=C(/C)COC(=O)C(C)C1CCC(C)(C=C)O1 (centres undefined)", "group label": "NO"}
{"compound": "CC(=O)O[C@@H]1C[C@@]23C[C@@]24CC[C@H](O[C@@H]2OC[C@H](O)[C@H](O)[C@H]2O)C(C)(C)[C@@H]4CC[C@H]3[C@]2(C)[C@@H](O)C34O[C@H](C[C@@H](C)[C@@H]3[C@@]12C)[C@@H](C(C)(C)O)O4", "group label": "NO"}
{"compound": "O=C(O)c1cccc(-c2ccc(-c3cn(C(=O)N4CCCCC4Cc4ccccc4)nn3)cc2)c1 (centres undefined)", "group label": "NO"}
{"compound": "Cc1c(F)ccc(C(=O)Nc2cc([N+](=O)[O-])ccc2N2CCN(C)CC2)c1Cl", "group label": "NO"}
{"compound": "COc1ccc(-c2ccc3c(N4CCOCC4C)nc(N4CCOCC4C)nc3n2)cc1CO (centres undefined)", "group label": "YES"}
{"compound": "COc1cc(O)cc(OC2OC(CO)C(O)C(O)C2O)c1 (centres undefined)", "group label": "NO"}
{"compound": "Cc1ccc(-c2cn3c4c(sc3n2)CCCC4)cc1", "group label": "YES"}
{"compound": "O=c1[nH]c2ccc(C#CCN3CCC(Cc4ccccc4)CC3)cc2[nH]1", "group label": "NO"}
{"compound": "COc1ccc(S(=O)(=O)Nc2cc(Cl)cc(Cl)c2OC)cc1N1CCNCC1", "group label": "NO"}
{"compound": "COc1cc(C(=O)O)ccc1NC(=O)C1NC(CC(C)(C)C)C(C#N)(c2ccc(Cl)cc2F)C1c1cccc(Cl)c1F (centres undefined)", "group label": "NO"}
